Would you kindly list inhibition for each of these compounds?
# Tested on: VIM-2 metallo-beta-lactamase [Pseudomonas aeruginosa]
# Assay Explanation: P. aeruginosa VIM-2 enzyme inhibition – biochemical, epi-absorbance, HTS, confirmation (AID 1860);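 note: 0% = enzyme with vehicle and 100% = no enzyme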
# Test Parameters: purified VIM-2 enzyme, nitrocefin absorbance; at 5.6 µM; hits give high values
This is one part of the list.
Could you give me the number in %? Just the number is fine.

// returns reported inhibition for input `Cc1cc2nc3c(=O)n(Cc4ccccc4)c(=O)[nH]c3nc2cc1N` 16.6

Param item: `c1ccc(-c2nccc(-c3ccc(-n4cnc5ccccc54)cc3)n2)nc1` 71.7

Consider next the compound `CN1C(=O)c2cccc3c(N)ccc(c23)C1=O` in the same way. 48.4

Try the compound `Nc1c(C(=O)c2cccs2)sc2nsc(SCCN3CCCCC3)c12` 31.7

Check `NS(=O)(=O)c1ccc(NC(=O)COC(=O)c2c3c(nc4ccccc24)/C(=C\c2ccc4c(c2)OCO4)CCC3)cc1` too. -1.18

Same question, `CCC(=C/c1sc2ccc3ccccc3c2[n+]1C)/C=C1\Sc2ccc3ccccc3c2N1C` this time 12

Please answer likewise for `Cc1nn(C)cc1N1C(=O)c2cccc3c(N)ccc(c23)C1=O` 35.2
